Target: human α2b adrenergic receptor (Homo sapiens, UniProt P18089)
Construct: expressed in transfected cells; host or cells: stably transfected cells, vector pcEXV-3; deposited line L-NGC-α2B (ATCC CRL-10275)
Assay: Equilibrium competition binding, [3H]rauwolscine, cloned human α2b
Conditions: cloned human α2b, membrane preparations, [3H]rauwolscine; read-out: α2b pKi (converted)
Counter-ions that a name gives are not always drawn.
List of Ki values.

# COMPOUND, Ki / nM
rows = [
    ("Cc1nc2c(c(C)c1NC1=NCCN1)CCC2", 36.3),
    ("c1cc2c(cc1NC1=NCCN1)CCC2", 2.88),
    ("CC(c1c[nH]cn1)c1cc(-c2ccccc2)nc2ccccc12 (stereo not shown) [Example 36, dihydrochloride]", 40.7),
    ("Brc1nc2c(c(Br)c1NC1=NCCN1)CCC2", 51.3),
]

====

Biological target: human α2a adrenergic receptor (Homo sapiens, UniProt P08913)
Construct: expressed in transfected cells; host or cells: LM(tk−) cells (L-α2A, ATCC CRL-11180), vector pCEXV-3
Assay: α2 agonist activity: inhibition of forskolin-stimulated cAMP synthesis, α2a cells
Type: cell-based
Conditions: inhibition of forskolin-stimulated cAMP, cloned human α2a

# COMPOUND, α2a IA (Intrinsic Activity)
measured = [
    ("Brc1nc2c(c(Br)c1NC1=NCCN1)CCC2", "(1.00)"),
    ("Cc1cccc(C(C)c2cnc[nH]2)c1C (centres unmarked) [Medetomidine, reference compound]", "(1.00)"),
    ("Cc1nc2c(c(C)c1NC1=NCCN1)CCC2", "(1.00)"),
]

====

Molecular target: human α2a adrenergic receptor (Homo sapiens, UniProt P08913)
Construct: expressed in transfected cells; host or cells: LM(tk−) cells (L-α2A, ATCC CRL-11180), vector pCEXV-3
Sequence (P08913 1-465): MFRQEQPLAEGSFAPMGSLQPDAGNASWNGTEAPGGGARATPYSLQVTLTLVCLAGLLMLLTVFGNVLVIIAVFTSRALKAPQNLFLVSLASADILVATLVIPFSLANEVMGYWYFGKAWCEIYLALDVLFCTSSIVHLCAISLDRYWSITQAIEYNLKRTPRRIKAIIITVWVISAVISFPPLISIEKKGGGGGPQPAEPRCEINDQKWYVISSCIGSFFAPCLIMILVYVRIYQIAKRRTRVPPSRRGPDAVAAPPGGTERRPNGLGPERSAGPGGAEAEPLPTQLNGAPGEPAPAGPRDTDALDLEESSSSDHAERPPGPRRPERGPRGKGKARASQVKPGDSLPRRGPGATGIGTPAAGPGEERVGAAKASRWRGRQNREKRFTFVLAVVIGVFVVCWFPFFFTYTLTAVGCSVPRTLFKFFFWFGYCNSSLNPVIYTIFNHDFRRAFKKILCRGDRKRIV
Test: Equilibrium competition binding, [3H]rauwolscine, cloned human α2a
Settings: cloned human α2a, membrane preparations, [3H]rauwolscine; read-out: α2a pKi (converted)
Method: Binding and functional assays were performed using stably transfected cells expressing human α adrenergic receptors. […] The stable cell lines described above were scraped from culture flasks into 5 mL of 5 mM Tris-HCl, […], pH 7.5, and lysed by sonication. […] Nonspecific binding was determined in the presence of 10 mM phentolamine. […]
Counter-ions that a name gives are not always drawn.
List of Ki values.

# COMPOUND, TARGET, Ki [nM]
data = [
    ("CC(c1c[nH]cn1)c1cc(-c2ccccc2)nc2ccccc12 (stereo not shown) [Example 36, dihydrochloride]", "human α2a adrenergic receptor (Homo sapiens, UniProt P08913)", 2.69),
    ("Brc1nc2c(c(Br)c1NC1=NCCN1)CCC2", "human α2a adrenergic receptor (Homo sapiens, UniProt P08913)", 14.8),
    ("c1cc2c(cc1NC1=NCCN1)CCC2", "human α2a adrenergic receptor (Homo sapiens, UniProt P08913)", 1.15),
    ("Cc1nc2c(c(C)c1NC1=NCCN1)CCC2", "human α2a adrenergic receptor (Homo sapiens, UniProt P08913)", 17.8),
]

====

Counter-ions that a name gives are not always drawn.
ASSAY_METRIC: melting point

# COMPOUND, ASSAY_METRIC, RESULT
data = [
    ("Br.Brc1cc2c(cc1NC1=NCCN1)CCC2", "melting point", "220 to 221 °C"),
    ("O=[N+]([O-])c1cc2c(cc1NC1=NCCN1)CCC2 (as salt: fumarate)", "melting point", "213 to 214 °C (dec.)"),
    ("O=C1CCCc2ccc(NC3=NCCN3)c(Br)c21 (as salt: fumarate)", "melting point", "204 to 207 °C (dec.)"),
    ("c1nc2c(cc1NC1=NCCN1)CCC2 (as salt: fumarate)", "melting point", "182 to 183.5 °C"),
    ("C1=NC(Cc2ccnc3ccccc23)CN1.O=C(O)/C=C/C(=O)O (stereo not drawn)", "melting point", "180 to 182 °C"),
    ("CON=C1CCCc2ccc(NC3=NCCN3)cc21 (as salt: fumarate)", "melting point", "201 to 202 °C (dec.)"),
    ("O=C1CCCc2ccc(NC3=NCCN3)cc21 (as salt: fumarate)", "melting point", "198 to 201 °C (dec.)"),
    ("CC1CCc2ncc(NC3=NCCN3)cc2C1 (stereo not drawn) (as salt: fumarate)", "melting point", "192 to 195 °C (dec.)"),
    ("c1cc2c(cc1NC1=NCCN1)CCC2", "melting point", "41 to 42 °C"),
]

====

Target: human α2b adrenergic receptor (Homo sapiens)
Construct: expressed in transfected cells; host or cells: stably transfected cells, vector pcEXV-3; deposited line L-NGC-α2B (ATCC CRL-10275)
Sequence (P18089 1-450): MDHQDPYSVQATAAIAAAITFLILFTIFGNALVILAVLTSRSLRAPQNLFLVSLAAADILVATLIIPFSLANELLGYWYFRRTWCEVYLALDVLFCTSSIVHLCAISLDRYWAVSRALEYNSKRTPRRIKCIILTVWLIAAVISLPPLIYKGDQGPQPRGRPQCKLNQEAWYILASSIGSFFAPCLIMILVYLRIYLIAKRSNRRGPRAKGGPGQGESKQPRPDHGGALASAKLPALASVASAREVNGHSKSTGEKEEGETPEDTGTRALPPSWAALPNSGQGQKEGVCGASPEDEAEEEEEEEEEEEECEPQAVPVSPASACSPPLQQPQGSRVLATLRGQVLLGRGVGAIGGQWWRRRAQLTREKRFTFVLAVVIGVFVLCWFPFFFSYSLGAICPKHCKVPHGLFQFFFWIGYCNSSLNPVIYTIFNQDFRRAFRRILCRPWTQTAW
Assay: Equilibrium competition binding, [3H]rauwolscine, cloned human α2b
ASSAY_METRIC: Ki (nM)

# CHEMICAL_STRING, ASSAY_METRIC, NUMERIC_READOUT
data = [
    ("c1nc2c(cc1NC1=NCCN1)CCC2", "Ki", 166),
]

====

Molecular target: human α2b adrenergic receptor (Homo sapiens)
Construct: expressed in transfected cells; host or cells: stably transfected cells, vector pcEXV-3; deposited line L-NGC-α2B (ATCC CRL-10275)
Sequence (P18089 1-450): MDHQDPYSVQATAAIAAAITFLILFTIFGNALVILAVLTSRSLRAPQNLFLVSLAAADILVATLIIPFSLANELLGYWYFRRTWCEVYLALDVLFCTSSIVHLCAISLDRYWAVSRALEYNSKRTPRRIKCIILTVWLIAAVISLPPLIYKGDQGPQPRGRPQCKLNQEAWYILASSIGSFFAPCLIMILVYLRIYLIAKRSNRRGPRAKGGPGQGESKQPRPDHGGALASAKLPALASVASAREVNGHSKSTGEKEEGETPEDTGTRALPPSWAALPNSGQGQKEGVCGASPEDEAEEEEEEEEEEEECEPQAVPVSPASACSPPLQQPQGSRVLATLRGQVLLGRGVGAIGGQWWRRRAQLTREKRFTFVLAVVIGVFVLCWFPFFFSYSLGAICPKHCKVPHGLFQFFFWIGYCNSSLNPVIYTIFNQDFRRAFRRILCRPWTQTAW
Assay: α2 agonist activity: inhibition of forskolin-stimulated cAMP synthesis, α2b cells
Format: cell-based

# MOLECULE, EC50 / nM
records = [
    ("c1nc2c(cc1NC1=NCCN1)CCC2 [Example 21]", 1950),
]

====

Molecular target: human α2a adrenergic receptor (Homo sapiens)
Construct: expressed in transfected cells; host or cells: LM(tk−) cells (L-α2A, ATCC CRL-11180), vector pCEXV-3
Assay: Equilibrium competition binding, [3H]rauwolscine, cloned human α2a
Experimental: Binding and functional assays were performed using stably transfected cells expressing human α adrenergic receptors. […] The stable cell lines described above were scraped from culture flasks into 5 mL of 5 mM Tris-HCl, […], pH 7.5, and lysed by sonication. […] Nonspecific binding was determined in the presence of 10 mM phentolamine. […]
pKi: −log10 of the molar value.

# COMPOUND, pKi
data = [
    ("c1nc2c(cc1NC1=NCCN1)CCC2 [Example 21]", 7.30),
]

src = patent US6777426B2
